Where do these numbers come from? They come from ChEMBL document CHEMBL1136492.

# ASSAYED TARGET: UniProt:P33032
# Sequence (P33032 whole entry): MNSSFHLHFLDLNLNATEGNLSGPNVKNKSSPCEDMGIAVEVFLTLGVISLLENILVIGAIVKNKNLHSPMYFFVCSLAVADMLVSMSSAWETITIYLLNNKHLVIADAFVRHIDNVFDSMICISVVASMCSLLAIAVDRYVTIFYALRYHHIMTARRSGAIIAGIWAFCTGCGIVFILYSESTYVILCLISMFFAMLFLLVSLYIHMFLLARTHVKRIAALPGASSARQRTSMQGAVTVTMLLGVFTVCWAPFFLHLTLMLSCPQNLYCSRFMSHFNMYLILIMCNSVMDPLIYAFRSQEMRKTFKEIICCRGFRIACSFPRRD
# ASSAY PROTOCOL: Concentration required to inhibit binding of [125I]NDP-alpha-MSH from membranes prepared from CHO cells expressing human melanocortin subtype-5-receptor (MC5R)
METRIC: IC50 (µM)
Hi! Could you send only the number? It should be in µM, unit omitted.

Q: Which IC50 value is on record for "COc1ccc(-n2nc(Sc3ccc(Cl)cc3)cc(CC[C@@H](C)NC(=O)[C@H]3CNCC[C@@H]3c3ccccc3)c2=O)cc1" ?
Result: 1.41

----------
# ASSAYED TARGET: Melanocortin receptor 4 (Homo sapiens, UniProt P32245)
# Sequence (P32245 whole entry): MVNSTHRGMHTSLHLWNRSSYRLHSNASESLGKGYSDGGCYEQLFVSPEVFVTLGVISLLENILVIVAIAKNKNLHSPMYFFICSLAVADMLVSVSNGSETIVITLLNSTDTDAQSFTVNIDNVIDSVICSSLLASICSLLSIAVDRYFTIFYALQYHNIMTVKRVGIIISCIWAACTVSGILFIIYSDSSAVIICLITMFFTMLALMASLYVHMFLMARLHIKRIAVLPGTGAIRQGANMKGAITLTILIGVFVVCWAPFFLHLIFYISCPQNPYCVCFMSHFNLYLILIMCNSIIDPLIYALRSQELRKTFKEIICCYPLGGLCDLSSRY
# ASSAY PROTOCOL: Concentration required to inhibit binding of [125I]NDP-alpha-MSH from membranes prepared from CHO cells expressing human MC4R
# Assay type: cell membranes
compounds and their reported IC50
Hi! Could you send only the number? It should be in nM, unit omitted.

COc1ccc(-n2nc(Sc3ccc(Cl)cc3)cc(CCC(=O)NC3CCCCNC3=O)c2=O)cc1 (configuration not stated) ... 2.27

As a next step, examine the compound that follows.
Q: Which IC50 value is on record for "COc1ccc(-n2nc(Sc3ccc(Cl)cc3)cc(CCC(=O)NCCOc3ccccc3)c2=O)cc1" ?
Result: 5600

----------
# ASSAYED TARGET: Melanocortin receptor 3 (Homo sapiens, UniProt P41968)
# Sequence (P41968 whole entry): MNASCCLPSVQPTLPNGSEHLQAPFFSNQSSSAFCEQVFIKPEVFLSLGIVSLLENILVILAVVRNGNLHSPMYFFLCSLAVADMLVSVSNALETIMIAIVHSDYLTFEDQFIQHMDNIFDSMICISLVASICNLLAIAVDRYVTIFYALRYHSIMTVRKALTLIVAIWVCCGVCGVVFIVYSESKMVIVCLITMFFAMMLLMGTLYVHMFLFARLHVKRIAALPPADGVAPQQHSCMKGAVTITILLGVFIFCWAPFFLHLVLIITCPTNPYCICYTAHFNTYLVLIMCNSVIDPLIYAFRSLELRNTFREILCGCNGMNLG
# ASSAY PROTOCOL: Concentration required to inhibit binding of [125I]NDP-alpha-MSH from membranes prepared from CHO cells expressing human melanocortin subtype-3-receptor (MC3R)
METRIC: pIC50
# log scale: pIC50 equals minus log10 of the concentration in mol/L

Q: Which pIC50 value is on record for "COc1ccc(-n2nc(Sc3ccc(Cl)cc3)cc(CC[C@@H](C)NC(=O)[C@H]3CNCC[C@@H]3c3ccccc3)c2=O)cc1" ?
Result: 5.66

----------
# ASSAYED TARGET: Melanocortin receptor 4 (Homo sapiens, UniProt P32245)
# ASSAY PROTOCOL: Concentration required to inhibit binding of [125I]-NDP-alpha-MSH from membranes prepared from CHO cells expressing human melanocortin subtype-4-receptor (MC4R)
# Format: cell membranes
compounds and their reported pIC50
# log scale: pIC50 equals minus log10 of the concentration in mol/L

COc1ccc(-n2nc(Sc3ccc(Cl)cc3)cc(CC[C@H](C)NC(=O)[C@@H]3CNCC[C@H]3c3ccccc3)c2=O)cc1 ... 5.52
O=C(N[C@H](Cc1ccc(Cl)cc1)C(=O)N1CCC(Cn2cncn2)(C2CCCCC2)CC1)[C@H]1CCc2ccccc2N1 ... 8.92
COc1ccc(-n2nc(Sc3ccc(Cl)cc3)cc(CC[C@@H](C)NC(=O)[C@@H]3CNCC[C@H]3c3ccccc3)c2=O)cc1 ... 5.69

Q: What pIC50 appears in the records for this compound with Melanocortin receptor 4 (Homo sapiens, UniProt P32245)? COc1ccc(-n2nc(Sc3ccc(Cl)cc3)cc(CC(C)CNC(=O)[C@H]3CNCC[C@@H]3c3ccccc3)c2=O)cc1 (some centres undefined)
Result: 5.66

Q: Next compound up: "COc1ccc(-n2nc(Sc3ccc(Cl)cc3)cc(CC[C@@H](C)NC(=O)[C@H]3CNCC[C@@H]3c3ccccc3)c2=O)cc1"
Result: 7.48

Q: Next compound up: "COc1ccc(-n2nc(Sc3ccc(Cl)cc3)cc(CC[C@H](C)NC(=O)[C@H]3CNC[C@@H]3c3ccccc3)c2=O)cc1"
Result: 6.01

Q: Next compound up: COc1ccc(-n2nc(Sc3ccc(Cl)cc3)cc(CCC(C)NC(=O)[C@H]3CNCC[C@@H]3c3ccccc3)c2=O)cc1 (some centres undefined)
Result: 7.39

Q: Next compound up: "COc1ccc(-n2nc(Sc3ccc(Cl)cc3)cc(CCCNC(=O)[C@H]3CNCC[C@@H]3c3ccccc3)c2=O)cc1"
Result: 5.71

Q: Next compound up: "COc1ccc(-n2nc(Sc3ccc(Cl)cc3)cc(CC[C@@H](C)NC(=O)[C@H]3CNCC[C@H]3c3ccccc3)c2=O)cc1"
Result: 5.65

Q: Next compound up: COc1ccc(-n2nc(Sc3ccc(Cl)cc3)cc(CCC(C)NC(=O)[C@H]3CCNC[C@@H]3c3ccccc3)c2=O)cc1 (some centres undefined)
Result: 6.47
